- Experimental system: CGRP receptor (SK-N-MC cell membranes) (Homo sapiens, UniProt O60894+Q16602)
- Construct: endogenous in cells; host or cells: SK-N-MC cells (membrane homogenate)
- Sequence (Q16602 23-461): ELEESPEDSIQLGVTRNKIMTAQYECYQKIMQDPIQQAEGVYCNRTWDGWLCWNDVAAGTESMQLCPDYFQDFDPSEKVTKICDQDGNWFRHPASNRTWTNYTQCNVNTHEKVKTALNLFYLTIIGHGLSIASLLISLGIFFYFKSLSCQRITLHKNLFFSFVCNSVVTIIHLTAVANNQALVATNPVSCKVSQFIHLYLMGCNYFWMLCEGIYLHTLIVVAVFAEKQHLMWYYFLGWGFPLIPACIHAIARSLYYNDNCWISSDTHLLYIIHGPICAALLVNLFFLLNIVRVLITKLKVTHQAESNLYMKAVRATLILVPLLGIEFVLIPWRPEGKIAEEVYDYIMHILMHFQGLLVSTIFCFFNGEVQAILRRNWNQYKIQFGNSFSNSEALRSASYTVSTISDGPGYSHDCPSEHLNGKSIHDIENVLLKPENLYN
- Sequence (O60894 27-148): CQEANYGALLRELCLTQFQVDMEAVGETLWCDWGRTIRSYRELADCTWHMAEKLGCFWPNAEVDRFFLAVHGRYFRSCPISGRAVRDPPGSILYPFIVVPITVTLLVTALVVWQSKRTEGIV
- Run description: CGRP Binding Assay ([125I]-CGRP radioligand binding, SK-N-MC homogenate)
- Applied conditions: displacement of [125I]-CGRP, SK-N-MC homogenate; read-out: CGRP binding IC50
pIC50: −log10 of the molar value.
Property label: pIC50

1) CCCCC(CC)CN1CCN(C(=O)C(Cc2ccc3[nH]ncc3c2)NC(=O)N2CCC(N3Cc4ccccc4NC3=O)CC2)CC1 (stereo not drawn) [Example 40f]
< 6.00
2) O=C(Nc1cc(F)ccc1F)N[C@@H](CC(=O)N1CCC(N2Cc3ccccc3NC2=O)CC1)C(=O)N1CCC(N2CCCCC2)CC1
7.00 to 8.00
3) Cc1c(Cl)cccc1NC(=O)N[C@@H](CC(=O)N1CCC(N2Cc3ccccc3NC2=O)CC1)C(=O)N1CCC(N2CCCCC2)CC1
6.00 to 7.00
4) Cc1cccc(NC(=O)N[C@@H](CC(=O)N2CCC(N3Cc4ccccc4NC3=O)CC2)C(=O)N2CCC(N3CCCCC3)CC2)c1C
6.00 to 7.00
5) O=C(C[C@H](NCc1ccccn1)C(=O)N1CCC(N2CCCCC2)CC1)N1CCC(N2Cc3ccccc3NC2=O)CC1
6.00 to 7.00
6) Cc1nc(N[C@@H](CC(=O)N2CCC(N3Cc4ccccc4NC3=O)CC2)C(=O)N2CCC(N3CCCCC3)CC2)nc(N)c1N
6.00 to 7.00

The measured values listed here are drawn from patent US7842808B2.
